system: SF-539 CNS; assay: NCI-60 one-dose screen, 48 h; conditions: 10 µM unless noted
The panel holds about 83,000 compounds, 20% with a hit somewhere; the sample as a whole holds those more often. Active and inactive are the calls of the source. The calls were made as follows: active = growth percent below 10; inactive = the rest.
Allowed answers: active, inactive

Some entries whose results are on file:
Brc1cccc(-c2cc(-c3ccc4nccnc4c3)[nH]n2)c1 | active
COc1cccc(/C=C/C(=O)Nc2cc(OC)c3c(c2)OCO3)c1 | inactive
CCOC(=O)C1CCNC(=O)C1=O (stereo unspecified) | inactive
CCN(CC)CCCNc1nccc2ccc(Cl)cc12 | inactive
Cc1ccc(S(=O)(=O)NCCNc2nccc(-c3c(-c4cccc(N)c4)nc4sccn34)n2)cc1 | inactive

Turning to the following compound.
# fetch the recorded call for O=C(Nc1ccc2c(c1)OCCO2)C(=O)c1c[nH]c2ccccc12 here
active
